Molecular target: T1, DHX36 (RHAU) (UniProt Q9H2U1 1-1008)
T1 sequence: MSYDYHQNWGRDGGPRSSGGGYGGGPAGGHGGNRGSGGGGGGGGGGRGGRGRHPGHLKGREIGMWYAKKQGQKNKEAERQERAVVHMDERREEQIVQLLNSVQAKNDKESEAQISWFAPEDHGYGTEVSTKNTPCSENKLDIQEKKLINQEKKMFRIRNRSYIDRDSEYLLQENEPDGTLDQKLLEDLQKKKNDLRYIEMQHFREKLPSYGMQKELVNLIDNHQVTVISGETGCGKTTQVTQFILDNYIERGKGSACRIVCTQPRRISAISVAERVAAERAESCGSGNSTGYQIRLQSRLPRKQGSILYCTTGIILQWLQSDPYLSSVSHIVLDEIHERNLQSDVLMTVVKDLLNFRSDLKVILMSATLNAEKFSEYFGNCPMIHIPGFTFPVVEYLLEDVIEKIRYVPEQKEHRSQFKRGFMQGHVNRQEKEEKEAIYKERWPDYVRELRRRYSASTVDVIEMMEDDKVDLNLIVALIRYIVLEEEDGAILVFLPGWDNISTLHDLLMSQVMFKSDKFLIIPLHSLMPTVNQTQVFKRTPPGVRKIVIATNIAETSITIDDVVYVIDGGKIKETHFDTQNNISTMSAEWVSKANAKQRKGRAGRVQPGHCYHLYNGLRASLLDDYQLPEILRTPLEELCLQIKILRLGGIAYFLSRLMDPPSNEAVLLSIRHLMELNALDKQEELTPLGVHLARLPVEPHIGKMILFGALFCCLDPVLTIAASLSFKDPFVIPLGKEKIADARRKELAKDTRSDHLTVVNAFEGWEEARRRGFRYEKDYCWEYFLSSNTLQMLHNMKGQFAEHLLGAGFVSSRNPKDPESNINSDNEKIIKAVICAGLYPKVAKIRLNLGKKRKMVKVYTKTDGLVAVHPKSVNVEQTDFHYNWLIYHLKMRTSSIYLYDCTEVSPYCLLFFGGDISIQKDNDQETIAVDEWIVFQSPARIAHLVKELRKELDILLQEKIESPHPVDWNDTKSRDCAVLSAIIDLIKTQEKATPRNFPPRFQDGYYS
Experiment: MST; EMSA and MST: 25 mM Tris-HCl pH 7.5, 150 mM KCl, 1 mM MgCl2, 37 C 30 min; 30 nM (EMSA) or 40 nM (MST) FAM-oligo; EMSA gel 10% native PAGE, 0.5x TBE, 4 C
Conditions: protein: recombinant; label: 3'-FAM; G4
Assign Kd to each entry below.
Give bare numbers, in nM.

INSERT INTO results (binder, endpoint_value) VALUES
  ('GGGUUGCGGAGGGUGGGCCU (structured_RNA, 5''-hexynyl clicked to AHPC-PEG2 (VHL ligand)) [FAM_rG4_A_PEG2 (FAM_rG4_A)]', 79.7);

Now consider a different binder.
Would you kindly share the measured Kd for TTGGGTGGGTGGGTGGGT (structured_DNA, 5'-hexynyl clicked to AHPC-PEG2) [FAM_dG4_A (T95-2T)] ? 303

The measurements presented in this section are drawn from paper PMC11780864.
